Origin of measurements: ChEMBL document CHEMBL1629690

Tested on: Human immunodeficiency virus 1
method: Antiviral activity against HIV1 isolate 200 harboring reverse transcriptase M41L/L210W/T215Y mutant gene by phenosense assay relative to wild type
Format: functional
Below, each entry is listed alongside its reported fold change (FC).
Hey, just send me the number, nothing else.

[[record]]
smi = "O=c1[nH]cnc2c1ncn2[C@H]1CC[C@@H](CO)O1"
measured_metric = "fold change (FC)"
assay_value = 1.4


Q: I am curious: what fold change (FC) value has been reported for "Cc1cn([C@H]2C[C@H](N=[N+]=[N-])[C@@H](CO)O2)c(=O)[nH]c1=O" ?
Result: 100

Q: // query: "Nc1nc(NC2CC2)c2ncn([C@H]3C=C[C@@H](CO)C3)c2n1"
Result: 2.8

Q: // query: "Nc1nc(=O)n([C@@H]2CS[C@H](CO)O2)cc1F"
Result: 3.7

Q: // query: "Nc1ccn([C@@H]2CS[C@H](CO)O2)c(=O)n1"
Result: 2.7

---

Below, each entry is listed alongside its reported fold change (FC).
System: Human immunodeficiency virus 1
method: Antiviral activity against HIV1 isolate 060 harboring reverse transcriptase M41L/D67N/K70R/L210W/T215Y/K219E mutant gene by phenosense assay relative to wild type
Assay type: functional
Hey, just send me the number, nothing else.

As a guide, the following entries are already answered.
[[record]]
smi = "Nc1nc(=O)n([C@@H]2CS[C@H](CO)O2)cc1F"
assay_value = 6.9

[[record]]
smi = "O=c1[nH]cnc2c1ncn2[C@H]1CC[C@@H](CO)O1"
assay_value = 1.5


Q: I am curious: what fold change (FC) value has been reported for "Nc1ccn([C@@H]2CS[C@H](CO)O2)c(=O)n1" ?
Result: 5.1

---

System: Human immunodeficiency virus 1
method: Antiviral activity against HIV1 isolate 206 harboring reverse transcriptase D67N/K70R mutant gene by phenosense assay
Assay type: functional, organism-based
setup conditions: Human immunodeficiency virus 1, isolate 206
1 (yes) if EC50 is below 800 nM. 0 (no) if not; exact matches included in 0 (no).

[[record]]
compound = "Nc1nc(=O)n([C@@H]2CS[C@H](CO)O2)cc1F [EMTRICITABINE]"
label_value = "0 (no)"

[[record]]
compound = "Cc1cn([C@H]2C[C@H](N=[N+]=[N-])[C@@H](CO)O2)c(=O)[nH]c1=O [ZIDOVUDINE]"
label_value = "1 (yes)"

[[record]]
compound = "CCCCCCCCCCCCCCCCOCCCOP(=O)(O)CO[C@H](C)Cn1cnc2c(N)ncnc21 [TENOFOVIR EXALIDEX]"
label_value = "1 (yes)"

[[record]]
compound = "C[C@H](Cn1cnc2c(N)ncnc21)OCP(=O)(O)O [TENOFOVIR ANHYDROUS]"
label_value = "0 (no)"

[[record]]
compound = "Nc1ccn([C@@H]2CS[C@H](CO)O2)c(=O)n1 [LAMIVUDINE]"
label_value = "0 (no)"

[[record]]
compound = "Nc1nc(NC2CC2)c2ncn([C@H]3C=C[C@@H](CO)C3)c2n1 [ABACAVIR]"
label_value = "0 (no)"


Could you now consider this next compound?
Q: Does the reported EC50 of O=c1[nH]cnc2c1ncn2[C@H]1CC[C@@H](CO)O1 [DIDANOSINE] stay below 800 nM?
Result: 0 (no)

---

Test system: Human immunodeficiency virus 1
method: Antiviral activity against HIV1 isolate 174 harboring reverse transcriptase M184V mutant gene obtained as site-directed mutant of NL4-3 by phenosense assay
Type: functional, organism-based
setup conditions: Human immunodeficiency virus 1, isolate 174
pEC50: −log10 of the molar value.
Kindly return true (1) if reported pEC50 is no lower than 6; return false (0) if it is lower.

Q: Determine whether this molecule has pEC50 no lower than 6: "Nc1ccn([C@@H]2CS[C@H](CO)O2)c(=O)n1"
Result: false (0)

Q: // query: "Nc1nc(NC2CC2)c2ncn([C@H]3C=C[C@@H](CO)C3)c2n1"
Result: false (0)

Q: // query: "CCCCCCCCCCCCCCCCOCCCOP(=O)(O)CO[C@H](C)Cn1cnc2c(N)ncnc21"
Result: true (1)

Q: // query: "Nc1nc(=O)n([C@@H]2CS[C@H](CO)O2)cc1F"
Result: false (0)

Q: // query: "Cc1cn([C@H]2C[C@H](N=[N+]=[N-])[C@@H](CO)O2)c(=O)[nH]c1=O"
Result: true (1)

Q: // query: "Cc1cn([C@H]2C=C[C@@H](CO)O2)c(=O)[nH]c1=O"
Result: true (1)

Q: // query: "O=c1[nH]cnc2c1ncn2[C@H]1CC[C@@H](CO)O1"
Result: false (0)

Q: // query: C[C@H](Cn1cnc2c(N)ncnc21)OCP(=O)(O)O [TENOFOVIR ANHYDROUS]
Result: true (1)
